Test system: HT-29
METHOD: NCI tumour cell line growth inhibition, 48 h
Active and inactive are the calls of the source. No stated cut-off is given here; in the data, active = GI50 up to about 1.1 µM and inactive = higher.
READOUT_NAME: GI50

Entry `O=C(Cn1c2ccc(Br)cc2c2nc3ccccc3nc21)N/N=C/c1ccccc1` needs its GI50 filled in; supply it.
> 100 µM (inactive)

***
Return value of GI50 for input N#CC(N)(C(=O)C(=O)NCCCNC(=O)C(=O)C(N)(C#N)c1ccc(Cl)cc1)c1ccc(Cl)cc1 (stereo not given) , no commentary.
> 100 µM (inactive)

Name the recorded GI50 of the compound listed here: `COc1cc(OC)cc(C(=O)Cc2c(C(=O)c3ccccc3)c3ccccc3n2C(=O)c2ccccc2)c1`
22.9 µM (inactive)

Answer with the recorded GI50 for the compound listed here: `CN1c2ccccc2S(=O)(=O)n2c(COc3ccc(Cl)cc3)nnc21`
> 100 µM (inactive)

For the compound `Nc1nnc2nc(CC(=O)/C=C/c3ccccc3)c(=O)[nH]n12` , give its reported GI50.
> 100 µM (inactive)

Kindly indicate its recorded GI50. Item: `COC(=O)c1ccccc1NC(=O)C(=O)CC(=O)c1ccccc1NC1=CC(=O)C(=O)c2ccccc21`
44.5 µM (inactive)

Please give measured GI50 of the following entry: NC(=O)NC(=O)C1CCC(=O)N1S(=O)(=O)c1ccc(Cl)cc1 (stereo not given)
> 100 µM (inactive)

Look up GI50 of `Cc1ccc2c(c1)c1ccc3c(c1n2C)C(=O)C=CC3=O` and report it.
> 10 µM (inactive)

Could you please provide reported GI50 for `CO/C(N)=C(C#N)/N=C/c1ccco1` ? Thanks!
> 100 µM (inactive)

Input `Cc1ccc(Nc2nc3c(=O)n(C)c(=O)n(C)c3nc2Nc2ccc(C)cc2)cc1` , output reported GI50.
10.4 µM (inactive)

====

Tested on: OVCAR-4
METHOD: NCI tumour cell line growth inhibition, 48 h
Active and inactive are the calls of the source. Rule as the data show it: active = GI50 up to about 1.1 µM and inactive = higher.
Result category, one only: true for active, false for inactive

A selection of reference data follows.
Call for entry CCOC(=O)C(O)(NC(=O)c1ccc(F)cc1)C(F)(F)F (stereo not given) :
false

Which outcome did this test record for the compound Nc1ccn(C2OC(COP(=O)(O)OCC3OC(n4cc(F)c(=O)[nH]c4=O)CC3O)C(O)C2O)c(=O)n1 (stereo not given) ?
false

Per the assay record, what outcome was assigned to CCOC(=O)C12CCC(=O)N1N(C)c1ncccc1N2 (stereo not given) ?
false

Tell me the assay call for CCCCCCCCCCCCCC(=O)OCC1OC(=O)C(O)C1O (stereo not given) please.
false

Please state the recorded outcome for this compound: O=C(O)C1CCc2ccc3ccccc3c2C1c1cccc2ccccc12 (stereo not given)
false

Could you check what this test reported for `CCN(CC)CCOC(=O)c1ccc(N)cc1.CCOC(=O)Nc1ccc(S(=O)(=O)OC)cc1.CCOC(=O)Nc1ccc(S(=O)(=O)OC)cc1.Nc1ccc(C(=O)O)c(O)c1` ?
false

Pending compound:
Just curious, what result did `C[N+]1=c2c3cccc4cccc(c(=O)n2CC1)c43` get here?
false

====

Test system: HL-60
METHOD: NCI tumour cell line growth inhibition, 48 h
Active and inactive are the calls of the source. Cut-off read from the data, not from the text of the source: active = GI50 up to about 1.1 µM and inactive = higher.
Your answer must be one of the following: 1 (yes) = active, 0 (no) = inactive

Reference set, count: 2
Any idea what this test logged for COc1cc(-c2c3c(cc4c2OCO4)[C@@H](Nc2ccc(-c4ccc(-c5ccc(N[C@@H]6c7cc8c(cc7C(c7cc(OC)c(O)c(OC)c7)[C@H]7C(=O)OC[C@H]67)OCO8)cc5)cc4)cc2)[C@H]2COC(=O)[C@@H]2C3)cc(OC)c1O (some centres undefined) ?
0 (no)

Hi team, can someone confirm the assay call for CC1CCCc2c(C#N)c(N)nc(-c3ccc(Cl)cc3)c21 (centres undefined) ?
0 (no)

***
Please indicate how the test categorized O=C(O)C1CCCN1C(=O)c1cc(Cl)ccn1 (centres undefined) .
0 (no)

How was `COc1cc(Nc2nc3ccccc3n3cccc23)cc(OC)c1OC` classified in this test?
0 (no)

Recorded test outcome, item `COc1cc([C@@H]2c3cc4c(c(O[C@@H]5O[C@H]6CO[C@@H](C)O[C@H]6[C@H](O)[C@@H]5O)c3C[C@H]3COC(=O)[C@@H]32)OCO4)cc(OC)c1O`
0 (no)

Could you check what this test reported for `COc1ccc(-c2cc3ccccc3[nH]c2=O)cc1OC` ?
0 (no)

Recorded test outcome, item `Cc1nnc(N)nc1/C=C\c1cccs1`
0 (no)

Recorded call for `O=C(c1ccccn1)C1(N2CCCCC2)CCCCC1` ?
0 (no)

// return assay outcome for CC1=C[C@]2(CC(C)C3C(CC4(C)C5CCC6C(C)(C)C(=O)CC[C@@]67C[C@@]57CC[C@]34C)O2)OC1=O (some centres undefined)
1 (yes)

Fill in: this test's call for CC(C(=O)c1ccc(Cl)cc1)/C(=N/NC(=O)NN)C(=O)Nc1cccc(C(F)(F)F)c1 (centres undefined) is ___
0 (no)

Please let me know the test result on file for COc1ccc(N[S+]([O-])c2ccccc2OC)cc1 (centres undefined) .
0 (no)

Outcome logged for CC12OC3(C(O)C1O)C(C(=O)O[C@H]3CO[Si](C)(C)C(C)(C)C)C2S(=O)(=O)c1ccccc1 (some centres undefined) in this assay:
0 (no)

Hi, sorry to bother you, what did the test record for `CN(C)c1nc(NC23CC4CC(CC(C4)C2)C3)nc(N(C)C)n1` ?
0 (no)

Test call for this compound, please: `Cn1c(=O)c(NC(=O)C(Cl)(Cl)Cl)nc2ccccc21`
0 (no)

Please share the test call associated with COc1ccc2c(c1)CN1C(=N2)CSC1c1cc([N+](=O)[O-])ccc1Cl (centres undefined) .
0 (no)

In this assay, the call recorded for Cc1ccc(S(=O)(=O)n2c3c(c4ccccc42)CCN2CCC(Br)C[C@@H]32)cc1 (some centres undefined) was what?
0 (no)

For this compound, state the assay outcome: `O=C(/C=C/c1cccc([N+](=O)[O-])c1)c1ccc([N+](=O)[O-])cc1`
0 (no)

Record request — test call for `O=C1/C(=C/c2ccc(O)c([N+](=O)[O-])c2)CCC/C1=C\c1ccc(O)c([N+](=O)[O-])c1`
0 (no)

Field: outcome | Entry: CCOC(=O)C(O)(NC(=O)c1ccc(F)cc1)C(F)(F)F (centres undefined)
0 (no)
